Below: a set of entries, each annotated with reported IC50.
Test system: ECa-109 cell line
RUN_DESCRIPTION: Antiproliferative activity against human EC109 cells assessed as inhibition of cell growth incubated for 72 hrs by SRB assay
Type: functional, cell-based
CONDITION_CONTEXT: ECa-109, 72 h
EXPERIMENTAL_READOUT: IC50 (µM)

STRUCTURE | UNITS | VALUE_OBSERVED
C=C1C(=O)[C@@]23[C@H](O)C[C@@H]4C(C)(C)CCC[C@@]4(COC(C)=O)[C@@H]2[C@@H](O)C[C@H]1[C@H]3OC(=O)c1cccc(Cl)c1 | µM | 0.4
C=C1C(=O)[C@@]23[C@H](O)C[C@@H]4C(C)(C)CCC[C@@]4(COC(C)=O)[C@@H]2[C@@H](O)C[C@H]1[C@H]3OC(=O)c1ccccc1Br | µM | 0.51
C=C1C(=O)[C@@]23[C@H](O)C[C@@H]4C(C)(C)CCC[C@@]4(COC(C)=O)[C@@H]2[C@@H](O)C[C@H]1[C@H]3OC(=O)c1ccc(Br)cc1 | µM | 0.38

* * *

System: ECa-109 cell line
RUN_DESCRIPTION: Antiproliferative activity against human EC109 cells assessed as inhibition of cell growth incubated for 72 hrs by SRB assay
Format: functional, cell-based
CONDITION_CONTEXT: ECa-109, 72 h
pIC50: −log10 of the molar value.
Quick reference: pIC50 of the listed items.

STRUCTURE | ASSAY_SYSTEM | pIC50
C=C1C(=O)[C@@]23[C@H](O)C[C@@H]4C(C)(C)CCC[C@@]4(COC(C)=O)[C@@H]2[C@@H](O)C[C@H]1[C@H]3OC(=O)c1cccc(Cl)c1Cl | ECa-109 cell line | 6.48
C=C1C(=O)[C@@]23[C@H](O)C[C@@H]4C(C)(C)CCC[C@@]4(COC(C)=O)[C@@H]2[C@@H](O)C[C@H]1[C@H]3OC(=O)CCc1ccccc1 | ECa-109 cell line | 6.17
C=C1C(=O)[C@@]23[C@H](O)C[C@@H]4C(C)(C)CCC[C@@]4(COC(C)=O)[C@@H]2[C@@H](O)C[C@H]1[C@H]3OC(=O)c1ccccc1C | ECa-109 cell line | 6.33

* * *

System: MGC-803
RUN_DESCRIPTION: Antiproliferative activity against human MGC-803 cells assessed as inhibition of cell growth incubated for 72 hrs by SRB assay
Format: functional, cell-based
CONDITION_CONTEXT: MGC-803, 72 h
IC50 values for the compounds below.

STRUCTURE | IC50
C=C1C(=O)[C@@]23[C@H](O)C[C@@H]4C(C)(C)CCC[C@@]4(COC(C)=O)[C@@H]2[C@@H](O)C[C@H]1[C@H]3OC(=O)c1ccc(C(F)(F)F)cc1 | 0.77 µM
C=C1C(=O)[C@@]23[C@H](O)C[C@@H]4C(C)(C)CCC[C@@]4(COC(C)=O)[C@@H]2[C@@H](O)C[C@H]1[C@H]3OC(=O)c1cccc(Br)c1 | 0.42 µM
C=C1C(=O)[C@@]23[C@H](O)C[C@@H]4C(C)(C)CCC[C@@]4(COC(C)=O)[C@@H]2[C@@H](O)C[C@H]1[C@H]3OC(=O)c1ccccc1 | 0.47 µM
C=C1C(=O)[C@@]23[C@H](O)C[C@@H]4C(C)(C)CCC[C@@]4(COC(C)=O)[C@@H]2[C@@H](O)C[C@H]1[C@H]3OC(=O)c1ccccc1C | 0.63 µM
